Each recorded value in this set is attributed to patent US20230405081A1.

# Assay overview: in vitro
# Study conditions: human, real gastrointestinal fluid or homogenate, pH 7, % Desmopressin remaining after 1 hours (T = 1 h)
Measured attribute: remaining at 1 h, 0.1 mg/ml

Exercise: # get_value(readout='remaining at 1 h, 0.1 mg/ml', item= "NC(=O)CC[C@@H]1NC(=O)[C@H](Cc2ccccc2)NC(=O)[C@H](Cc2ccc(O)cc2)NC(=O)CCSSC[C@@H](C(=O)N2CCC[C@H]2C(=O)N[C@H](CCCN=C(N)N)C(=O)NCC(N)=O)NC(=O)[C@H](CC(N)=O)NC1=O" )
Solution: 28.8%

----------
# Assay overview: in vitro
# Study conditions: human, real gastrointestinal fluid or homogenate, pH 7, % Peptide remaining at 0.5 hours (T = 0.5 h)
Measured attribute: remaining at 0.5 h, 1 mg/ml
Express your answer as a number followed by its unit.

Exercise: # get_value(readout='remaining at 0.5 h, 1 mg/ml', item= "CC[C@H](C)[C@H](NC(=O)[C@H](Cc1ccc(O)cc1)NC(=O)[C@@H](N)CS)C(=O)N[C@@H](CCC(N)=O)C(=O)N[C@@H](CC(N)=O)C(=O)N[C@@H](CS)C(=O)N1CCC[C@H]1C(=O)N[C@H](CC(C)C)C(=O)NCC(N)=O" )
Solution: 0%
